Data provenance is the supplement of paper PMC11061612.

# Tested on: KYSE-140 (Esophageal Squamous Cell Carcinoma)
# PROCEDURE TEXT: combination Emax (second highest fraction inhibited in the dose matrix, 72 h); higher = more inhibition; extreme values may be limits of the assay
As shown below, each of these molecules has a reported combination Emax value.

MOLECULE	combination Emax
C[C@@H](c1ccc2nccn2c1)n1nnc2ncc(-c3cnn(C)c3)nc21 [Savolitinib] + CN(CC[C@H](CSC1=CC=CC=C1)NC2=C(C=C(C=C2)S(=O)(=O)NC(=O)C3=CC=C(C=C3)N4CCC(CC4)[C@H](C5=CC=CC=C5C6=CC=C(C=C6)Cl)O)S(=O)(=O)C(F)(F)F)CCO [AZD4320] (first compound max 1 µM, 7x7, partner max 1 µM)	0.236
NC1(C(=O)N[C@@H](CCO)c2ccc(Cl)cc2)CCN(c2ncnc3[nH]ccc23)CC1 [Capivasertib] + CC(=O)c1c(C)c2cnc(Nc3ccc(N4CCNCC4)cn3)nc2n(C2CCCC2)c1=O [Palbociclib] (first compound max 10 µM, 7x7, partner max 10 µM)	0.78
Cn1cnc2c(F)c(Nc3ccc(Br)cc3Cl)c(C(=O)NOCCO)cc21 [Selumetinib] + CCN(CCO)CCCOc1ccc2c(Nc3cc(CC(=O)Nc4cccc(F)c4)[nH]n3)ncnc2c1 [AZD2811] (first compound max 10 µM, 7x7, partner max 1 µM)	0.294

----------
# System: A204 (Rhabdomyosarcoma)
# PROCEDURE TEXT: Bliss excess, mean over the matrix (fraction); higher = more synergy
PROPERTY NAME: Bliss excess

COMPOUND	OBS VALUE
Cc1c2c(nn1C)CSCc1cc(n(C)n1)CSc1cc(c3ccccc3c1)OCCCc1c(C(=O)O)n(C)c3c-2c(Cl)ccc13 [AZD5991] + Cc1cc2ncnn2cc1Nc1ncc2c(n1)n(C1CCOCC1)c(=O)n2C [AZD7648] (first compound max 1 µM, 7x7, partner max 10 µM)	-0.0466

----------
# Tested on: EW-16 (Ewing's Sarcoma)
# PROCEDURE TEXT: Bliss excess, mean over the matrix (fraction); higher = more synergy

COMPOUND	TARGET OR TEST SYSTEM	Bliss excess
Cc1c2c(nn1C)CSCc1cc(n(C)n1)CSc1cc(c3ccccc3c1)OCCCc1c(C(=O)O)n(C)c3c-2c(Cl)ccc13 [AZD5991] + CCN(CCO)CCCOc1ccc2c(Nc3cc(CC(=O)Nc4cccc(F)c4)[nH]n3)ncnc2c1 [AZD2811] (first compound max 1 µM, 7x7, partner max 1 µM)	EW-16 (Ewing's Sarcoma)	0.117
C[C@@H](c1ccc2nccn2c1)n1nnc2ncc(-c3cnn(C)c3)nc21 [Savolitinib] + CC1(C)CCC(CN2CCN(c3ccc(C(=O)NS(=O)(=O)c4ccc(NCC5CCOCC5)c([N+](=O)[O-])c4)c(Oc4cnc5[nH]ccc5c4)c3)CC2)=C(c2ccc(Cl)cc2)C1 [Venetoclax] (first compound max 1 µM, 7x7, partner max 1 µM)	EW-16 (Ewing's Sarcoma)	-0.0873
CN(CCO)CC[C@H](CSc1ccccc1)Nc1ccc(S(=O)(=O)NC(=O)c2ccc(N3CCC([C@@H](O)c4ccccc4-c4ccc(Cl)cc4)CC3)cc2)cc1S(=O)(=O)C(F)(F)F [AZD4320] + CN(C)CCCOc1ccc(-c2ccc3ncc4c(c3c2)n(C2CCOCC2)c(=O)n4C)cn1 [AZD0156] (first compound max 1 µM, 7x7, partner max 1 µM)	EW-16 (Ewing's Sarcoma)	-0.003
